# Test Method Notes: Half-life period by analytical HPLC at pH 7.2
# Format: ADME
Measured Attribute: half-life

INSERT INTO assay_data (molecular_string, measured_attribute, obs_value) VALUES
  ('CC(C)(C)OC(=O)N[C@@H](Cc1ccccc1)[C@H](O)CNC[C@@H](O)[C@H](Cc1ccccc1)NC(=O)OC(C)(CO)CO', 'half-life', '18 h');
